Tested on: K24384-001-R-PDC complex spheroids, viability
Assay: Anticancer human tumor K24384-001-R-PDC patient-derived pancreatic adenocarcinoma cell line growth inhibition [GQUAD]
Conditions: second compound 0.316 µM; first compound 1 µM; stronger effect = lower value
parameter: viability, T/C (%)

compound	parameter	numeric_readout
CC(C)n1c(=O)n(C)c2cnc3cc(F)c(-c4ccc(OCCCN5CCCCC5)nc4)cc3c21 + Cc1cnc(CNC(=O)c2c(=O)c3ccc(N4CCCN(C)CC4)nc3n3c2sc2ccccc23)cn1	viability, T/C	62
COc1cc(C2c3cc4c(cc3C(OC3OC5COC(C)OC5C(O)C3O)C3COC(=O)C23)OCO4)cc(OC)c1O (stereo not given) + Cc1cnc(CNC(=O)c2c(=O)c3ccc(N4CCCN(C)CC4)nc3n3c2sc2ccccc23)cn1	viability, T/C	46.4
COc1cc(C2c3cc4c(cc3C(OC3OC5COC(C)OC5C(O)C3O)C3COC(=O)C23)OCO4)cc(OC)c1O (stereo not given) + CN(C)c1ccc(Nc2c3ccc(NC(=O)CCN4CCCC4)cc3nc3cc(NC(=O)CCN4CCCC4)ccc23)cc1	viability, T/C	40.9
CC1COCCN1c1cc(C2(S(C)(=N)=O)CC2)nc(-c2ccnc3[nH]ccc23)n1 (stereo not given) + CN(C)c1ccc(Nc2c3ccc(NC(=O)CCN4CCCC4)cc3nc3cc(NC(=O)CCN4CCCC4)ccc23)cc1	viability, T/C	56.9
CC1COCCN1c1cc(-c2ccnn2C)c2ccnc(-c3ccn[nH]3)c2n1 (stereo not given) + CN(C)c1ccc(Nc2c3ccc(NC(=O)CCN4CCCC4)cc3nc3cc(NC(=O)CCN4CCCC4)ccc23)cc1	viability, T/C	23.6
CCCS(=O)(=O)Nc1ccc(F)c(C(=O)c2c[nH]c3ncc(-c4ccc(Cl)cc4)cc23)c1F + Cc1cnc(CNC(=O)c2c(=O)c3ccc(N4CCCN(C)CC4)nc3n3c2sc2ccccc23)cn1	viability, T/C	64.8
CC1COCCN1c1cc(C2(O)CC3CCC(C2)O3)c2cnn(-c3ccn[nH]3)c2n1 (stereo not given) + CN(C)c1ccc(Nc2c3ccc(NC(=O)CCN4CCCC4)cc3nc3cc(NC(=O)CCN4CCCC4)ccc23)cc1	viability, T/C	26
O=C(c1cc(Cc2n[nH]c(=O)c3ccccc23)ccc1F)N1CCN(C(=O)C2CC2)CC1 + Cc1[nH]c2ccc(F)cc2c1-c1nc2c3cccnc3c3ncccc3c2[nH]1	viability, T/C	85.7
Cc1cccc(N(C)C(=O)C2C(O)CCN2c2nc(C)cc(C(F)(F)F)c2C#N)c1 (stereo not given) + Cc1[nH]c2ccc(F)cc2c1-c1nc2c3cccnc3c3ncccc3c2[nH]1	viability, T/C	104
COc1ncnc(C2CC2)c1-c1ncc2cnn(Cc3ccc(-c4nc(C(F)(F)F)cn4C(C)C)cc3)c2n1 + Cc1cnc(CNC(=O)c2c(=O)c3ccc(N4CCCN(C)CC4)nc3n3c2sc2ccccc23)cn1	viability, T/C	43.2

----------
A collection of compounds and their measured pIC50
Test system: K24384-001-R-PDC complex spheroids, viability
Test: Anticancer human tumor K24384-001-R-PDC cell line growth inhibition [GQUAD];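 further: spheroids exposed to compounds for seven days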
Conditions: curve of first compound; second compound 3.16 µM
pIC50: −log10 of the molar value.
parameter: pIC50

compound	parameter	result
Cc1[nH]c2ccccc2c1CCNCc1ccc(/C=C/C(=O)NO)cc1 + Cc1cnc(CNC(=O)c2c(=O)c3ccc(N4CCCN(C)CC4)nc3n3c2sc2ccccc23)cn1	pIC50	> 9.00
O=C(c1cc(Cc2n[nH]c(=O)c3ccccc23)ccc1F)N1CCN(C(=O)C2CC2)CC1 + Cc1[nH]c2ccc(F)cc2c1-c1nc2c3cccnc3c3ncccc3c2[nH]1	pIC50	< 5.00
COc1cc(C2c3cc4c(cc3C(OC3OC5COC(C)OC5C(O)C3O)C3COC(=O)C23)OCO4)cc(OC)c1O (stereo not given) + Cc1cnc(CNC(=O)c2c(=O)c3ccc(N4CCCN(C)CC4)nc3n3c2sc2ccccc23)cn1	pIC50	> 7.50
COc1ccc([C@@H](O)c2cc(-c3ncnc4cc(N5CCOCC5)ccc34)c(F)cc2Cl)nn1 + Cc1cnc(CNC(=O)c2c(=O)c3ccc(N4CCCN(C)CC4)nc3n3c2sc2ccccc23)cn1	pIC50	> 7.50
COc1cc(C2c3cc4c(cc3C(OC3OC5COC(C)OC5C(O)C3O)C3COC(=O)C23)OCO4)cc(OC)c1O (stereo not given) + CN(C)c1ccc(Nc2c3ccc(NC(=O)CCN4CCCC4)cc3nc3cc(NC(=O)CCN4CCCC4)ccc23)cc1	pIC50	6.18
